Taken from the RepoRT retention time repository.

# ASSAY_PROTOCOL: HILIC, HILICON iHILIC-(P) Classic, HILIC, PEEK, 50 × 2.1 mm, 5 µm, 30 °C, 0.12 mL/min, estimated dead time 0.92 min; A: water + 20 mM ammonium carbonate + 10 mM ammonium hydroxide; B: acetonitrile; gradient (min/%B) 0/90 1/90 21/20 21.5/20 23.5/20 24.5/90 26/90 26.5/90
# REPORTED_CONDITIONS: stereoisomer not certain
ATTRIBUTE_MEASURED: LC retention time (min)

[[record]]
compound = "O=c1ccn(C2OC(COP(=O)(O)O)C(O)C2O)c(=O)[nH]1 (stereo unspecified)"
attribute_measured = "LC retention time"
result_value = 9.35

[[record]]
compound = "O=c1ccn(C2OC(COP(=O)(O)OP(=O)(O)O)C(O)C2O)c(=O)[nH]1 (stereo unspecified)"
attribute_measured = "LC retention time"
result_value = 12.3

[[record]]
compound = "O=C(O)C(CO)OP(=O)(O)O (stereo unspecified)"
attribute_measured = "LC retention time"
result_value = 13.6

[[record]]
compound = "Nc1ncnc2c1ncn2C1OC(COP(=O)(O)O)C(O)C1O (stereo unspecified)"
attribute_measured = "LC retention time"
result_value = 8.72

[[record]]
compound = "O=C(O)C1(O)CC(O)C(O)C(O)C1 (stereo unspecified)"
attribute_measured = "LC retention time"
result_value = 6.61

[[record]]
compound = "NC(=O)c1ccc[n+](C2OC(COP(=O)(O)OP(=O)(O)OCC3OC(n4cnc5c(N)ncnc54)C(O)C3O)C(O)C2O)c1 (stereo unspecified)"
attribute_measured = "LC retention time"
result_value = 9.03


----------
# ASSAY_PROTOCOL: HILIC, HILICON iHILIC-(P) Classic, HILIC, PEEK, 50 × 2.1 mm, 5 µm, 30 °C, 0.12 mL/min, estimated dead time 0.92 min; A: water + 20 mM ammonium carbonate + 10 mM ammonium hydroxide; B: acetonitrile; gradient (min/%B) 0/90 1/90 21/20 21.5/20 23.5/20 24.5/90 26/90 26.5/90
# REPORTED_CONDITIONS: stereoisomer not certain
LC retention time values, listed per item
ATTRIBUTE_MEASURED: LC retention time (min)

[[record]]
molecule = "NCCCC(N)C(=O)O (configuration not stated)"
result_value = 18.1

[[record]]
molecule = "CC(=O)NC(CC(=O)O)C(=O)O (configuration not stated)"
result_value = 9.45

[[record]]
molecule = "CC(O)C(N)C(=O)O (configuration not stated)"
result_value = 8.21

[[record]]
molecule = "CC(=O)NC1C(OP(=O)(O)OP(=O)(O)OCC2OC(n3ccc(=O)[nH]c3=O)C(O)C2O)OC(CO)C(O)C1O (configuration not stated)"
result_value = 11.9

[[record]]
molecule = "Nc1ccn(C2OC(COP(=O)(O)OP(=O)(O)O)C(O)C2O)c(=O)n1 (configuration not stated)"
result_value = 13.2

[[record]]
molecule = "Nc1ccn(C2OC(CO)C(O)C2O)c(=O)n1 (configuration not stated)"
result_value = 5.88

[[record]]
molecule = "NC(CCC(=O)O)C(=O)O (configuration not stated)"
result_value = 9.84

